Biological target: hNPY2R (Homo sapiens)
Construct: expressed in transfected cells; host or cells: HEK-293 cells carrying a CRE-luciferase reporter gene
Sequence (P49146 1-381): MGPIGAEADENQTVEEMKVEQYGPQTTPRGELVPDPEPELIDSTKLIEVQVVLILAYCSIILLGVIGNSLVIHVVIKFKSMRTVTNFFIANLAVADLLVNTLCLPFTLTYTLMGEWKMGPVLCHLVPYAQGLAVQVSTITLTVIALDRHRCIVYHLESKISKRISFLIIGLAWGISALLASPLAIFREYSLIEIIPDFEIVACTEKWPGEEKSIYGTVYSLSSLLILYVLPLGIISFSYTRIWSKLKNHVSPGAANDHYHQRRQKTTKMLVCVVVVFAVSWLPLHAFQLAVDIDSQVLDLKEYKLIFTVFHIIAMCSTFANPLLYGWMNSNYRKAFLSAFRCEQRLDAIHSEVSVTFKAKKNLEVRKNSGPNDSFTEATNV
Experiment: hNPY2R CreLuc reporter gene assay in 0.5% and 100% plasma
Type: cell-based
Conditions: CreLuc reporter gene assay, 100% human plasma; read-out: hNPY2R 100% hP
Starred links: 1 amine or outer side, 2 acyl side, 3 side chain; linkers in the order of their positions; H or OH if unused. Non-standard residues stand in square brackets, D forms with d. Groups on a side chain read outwards from the residue. No end group written: not given here. *: point of attachment. C20 diacid = O=C(O)CCCCCCCCCCCCCCCCCCC(=O)*; C18 diacid = O=C(O)CCCCCCCCCCCCCCCCC(=O)*; γGlu = O=C(O)[C@H](CCC(=O)[*:2])N[*:1]; εLys = N[C@@H](CCCCN[*:1])C(=O)[*:2]; AEEA = NCCOCCOCC(=O)O; Aib = CC(C)(N)C(=O)O
MEASUREMENT LABEL: pEC50
Keep in mind that pEC50 stands for -log10 of concentration in molar terms.

Here's what some known entries look like.
>  <SUBSTANCE>
H-Y[Aib]EGTFTSDYSI[Aib]LEKQAQ[Aib]AFVEWLIK([εLys-γGlu-γGlu-γGlu-γGlu-γGlu-γGlu-C20 diacid])GGPSSGVSLRHYYNWLTRQRY-NH2 [Compound 96]

>  <EXPERIMENTAL TARGET>
hNPY2R (Homo sapiens)

>  <MEASUREMENT LABEL>
pEC50

>  <OBS VALUE>
7.35

$$$$
>  <SUBSTANCE>
H-Y[Aib]EGTFTSDYSI[Aib]LEKQAQ[Aib]AFVEWLIK([AEEA-AEEA-γGlu-γGlu-γGlu-γGlu-C20 diacid])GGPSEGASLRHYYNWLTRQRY-NH2 [Compound 287]

>  <EXPERIMENTAL TARGET>
hNPY2R (Homo sapiens)

>  <MEASUREMENT LABEL>
pEC50

>  <OBS VALUE>
7.34

$$$$
>  <SUBSTANCE>
H-Y[Aib]EGTFTSDYSI[Aib]LEKQAQ[Aib]EFVQWLIK([εLys-γGlu-γGlu-γGlu-γGlu-γGlu-γGlu-γGlu-C20 diacid])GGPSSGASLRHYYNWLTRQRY-NH2 [Compound 43]

>  <EXPERIMENTAL TARGET>
hNPY2R (Homo sapiens)

>  <MEASUREMENT LABEL>
pEC50

>  <OBS VALUE>
7.68

$$$$
>  <SUBSTANCE>
H-Y[Aib]EGTFTSDYSI[Aib]LEKQAQ[Aib]AFVEWLIK([AEEA-AEEA-γGlu-γGlu-γGlu-γGlu-C20 diacid])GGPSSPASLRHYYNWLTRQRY-NH2 [Compound 175]

>  <EXPERIMENTAL TARGET>
hNPY2R (Homo sapiens)

>  <MEASUREMENT LABEL>
pEC50

>  <OBS VALUE>
7.31

$$$$
>  <SUBSTANCE>
H-Y[Aib]EGTFTSDYSI[Aib]LEKQAQ[Aib]AFVQWLIK([εLys-γGlu-γGlu-γGlu-γGlu-γGlu-C20 diacid])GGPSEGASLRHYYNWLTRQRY-NH2 [Compound 242]

>  <EXPERIMENTAL TARGET>
hNPY2R (Homo sapiens)

>  <MEASUREMENT LABEL>
pEC50

>  <OBS VALUE>
7.54

$$$$
>  <SUBSTANCE>
Y[Aib]EGTFTSDYSI[Aib]LEKQAQ[Aib]AFVQWLIK([εLys-γGlu-γGlu-γGlu-γGlu-γGlu-γGlu-γGlu-C20 diacid])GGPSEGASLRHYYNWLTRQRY-NH2 [Compound 224]

>  <EXPERIMENTAL TARGET>
hNPY2R (Homo sapiens)

>  <MEASUREMENT LABEL>
pEC50

>  <OBS VALUE>
7.50

$$$$

QUERY: So what does the record say about pEC50 for H-Y[Aib]EGTFTSDYSI[Aib]LEKQAQ[Aib]AFVEWLIK([εLys-γGlu-γGlu-γGlu-γGlu-γGlu-γGlu-C20 diacid])GGPSSGIELRHFLNHLTRQRY-NH2 [Compound 2] ?
RESULT: 6.25

QUERY: Which pEC50 reading was recorded for the substance H-Y[Aib]EGTFTSDYSI[Aib]LEKQAQ[dD]AFVEWLIK([εLys-γGlu-γGlu-γGlu-γGlu-γGlu-γGlu-C20 diacid])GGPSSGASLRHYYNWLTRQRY-NH2 [Compound 211] ?
RESULT: 7.25

QUERY: # lookup: pEC50 of Y[Aib]EGTFTSDYSI[Aib]LEKQAQ[Aib]AFVQWLIK([Glu-γGlu-γGlu-γGlu-γGlu-C20 diacid])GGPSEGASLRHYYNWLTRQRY-NH2 [Compound 243]
RESULT: 7.30

QUERY: Requested read-out: pEC50. Entry: H-Y[Aib]EGTFTSDYSI[Aib]LEKQAE[Aib]AFVQWLIK([εLys-γGlu-γGlu-γGlu-γGlu-C18 diacid])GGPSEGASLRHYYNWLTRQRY-NH2 [Compound 174]
RESULT: 7.41

QUERY: Which measured pEC50 value corresponds to H-Y[Aib]EGTFTSDYSI[Aib]LEKQAQ[Aib]AFVQWLIK([AEEA-AEEA-γGlu-γGlu-γGlu-γGlu-γGlu-C18 diacid])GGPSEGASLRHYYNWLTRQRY-NH2 [Compound 246] ?
RESULT: 7.55

QUERY: What measured pEC50 goes with H-Y[Aib]EGTFTSDYSI[Aib]LEKQAE[Aib]AFVQWLIK([εLys-γGlu-γGlu-γGlu-γGlu-γGlu-γGlu-C18 diacid])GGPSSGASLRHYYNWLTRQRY-NH2 [Compound 51] ?
RESULT: 7.37

QUERY: // query pEC50 value for entry H-Y[Aib]EGTFTSDYSI[Aib]LEKQAQ[Aib]AFVEWLIK([εLys-γGlu-γGlu-γGlu-γGlu-γGlu-γGlu-C20 diacid])GGPSSGASVRHYYNWLTRQRY-NH2 [Compound 117]
RESULT: 7.61

QUERY: Requested read-out: pEC50. Entry: H-Y[Aib]EGTFTSDYSI[Aib]LEKQAQ[Aib]AFVEWLIK([AEEA-AEEA-γGlu-γGlu-γGlu-γGlu-C20 diacid])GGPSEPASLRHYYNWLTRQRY-NH2 [Compound 226]
RESULT: 7.33

QUERY: Fill in the blank: the reported pEC50 of H-Y[Aib]EGTFTSDYSI[Aib]LEKQAQ[Aib]AFVQWLIK([AEEA-AEEA-γGlu-γGlu-γGlu-γGlu-C18 diacid])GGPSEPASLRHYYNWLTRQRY-NH2 [Compound 173] is ____.
RESULT: 7.60

QUERY: Requested read-out: pEC50. Entry: H-Y[Aib]EGTFTSDYSI[Aib]LEKQAQ[Aib]EFVQWLIK([γGlu-γGlu-γGlu-γGlu-γGlu-C18 diacid])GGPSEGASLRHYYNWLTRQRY-NH2 [Compound 141]
RESULT: 7.45

QUERY: GET /values?readout=pEC50&item= H-Y[Aib]EGTFTSDYSI[Aib]LEKQAQ[Aib]AFVQWLIK([εLys-γGlu-γGlu-γGlu-γGlu-γGlu-γGlu-C20 diacid])GGPSYYVSLRHYYNWLTRQRY-NH2 [Compound 19]
RESULT: 7.71

QUERY: Using the record for H-Y[Aib]EGTFTSDYSI[Aib]LEKQAQ[Aib]AFVEWLIK([εLys-γGlu-γGlu-γGlu-γGlu-γGlu-γGlu-C20 diacid])GGPSSGES[Aib]RHYYNWLTRQRY-NH2 [Compound 49] , report its pEC50.
RESULT: 7.43

QUERY: Find the recorded pEC50 belonging to H-Y[Aib]EGTFTSDYSI[Aib]LEKQAQ[Aib]AFVEWLIK([εLys-γGlu-γGlu-γGlu-γGlu-γGlu-γGlu-C20 diacid])GGPSEGQSIRHYYNWLTRQRY-NH2 [Compound 134] and report it.
RESULT: 7.40

QUERY: Can you share its pEC50? I mean this substance: H-Y[Aib]EGTFTSDYSI[Aib]LEKQAQ[Aib]AFVQWLIK([εLys-γGlu-γGlu-γGlu-γGlu-γGlu-C18 diacid])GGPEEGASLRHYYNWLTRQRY-NH2 [Compound 143]
RESULT: 7.37

Data provenance is patent US20240247080A1.
